Where do the numbers come from? From ChEMBL document CHEMBL4699540.

assay_procedure: Metabolic stability in human liver microsomes assessed as compound remaining; note: time not given here
Assay type: ADME, Microsome
parameter_measured: Stabilty
Show the value, then the unit it is measured in.

INSERT INTO measurements (record_smiles, parameter_measured, result) VALUES
  ('Nc1cc([C@H](CCOCc2ccccc2)c2ccccc2)c2nn[nH]c2n1', 'Stabilty', '2%'),
  ('Nc1cc([C@H](CCN[C@@H]2CC[C@@H](c3ccccc3)C2)c2ccccc2)c2nn[nH]c2n1', 'Stabilty', '73%'),
  ('Nc1cc([C@H](Cc2ccccc2)c2ccccc2)c2nn[nH]c2n1', 'Stabilty', '84%');

Give the reported value of Stabilty for this record: Nc1cc([C@H](CCN[C@H]2CCc3ccccc32)c2ccccc2)c2nn[nH]c2n1
65%

Please look at this compound and report its Stabilty: Nc1cc([C@H](CCN[C@@H]2CC[C@@H](c3ccccc3)c3ccccc32)c2ccccc2)c2nn[nH]c2n1
9%

Specify measured Stabilty for Nc1cc([C@H](CCN[C@H]2C[C@@H](c3ccccc3)c3ccccc32)c2ccccc2)c2nn[nH]c2n1 .
35%

Report measured Stabilty; entry is Nc1cc([C@H](CCCc2ccccc2)c2ccccc2)c2nn[nH]c2n1
31%

Please report Stabilty for the following compound: Nc1cc([C@H](CCNCc2ccccc2)c2ccccc2)c2nn[nH]c2n1
88%

Consider the compound Nc1cc([C@H](CCNC23CCC(c4ccccc4)(CC2)CC3)c2ccccc2)c2nn[nH]c2n1 . State its measured Stabilty.
91%
